The values you see were collected from PubChem BioAssay (NCI).

System: U251 CNS
Experiment: NCI-60 one-dose screen, 48 h (100 = growth as untreated, 0 = no growth, -100 = all killed)
Settings: 10 µM unless noted
This is part of a sample that, as a whole, favours compounds with a hit. Of some 83,000 tested, about 20% had one in any assay.
Could you label it class 1 if measured growth is 40% or higher, and class 0 otherwise?

Given C/C(=N\Nc1nc(C)cs1)c1cc2ccccc2o1 , state whether its growth is at least 40%.
class 1

Quick check: does CCN(CC)c1ccc(/C=N\NC(=O)c2cccc(Nc3ccnc(C(F)(F)F)c3)c2)c(O)c1 have growth greater than or equal to 40%?
class 0

Kindly determine if growth recorded for CNC(=O)c1cc(Oc2ccc3nc(NC(=O)Nc4ccc(Cl)c(Cl)c4)sc3c2)ccn1 is above or exactly 40%.
class 0

# check: growth of COc1cc(/C=C\c2cc(/C=C\c3ccc(O)c(OC)c3)n(C(=O)CNc3ccc(Cl)cc3)n2)ccc1O is greater than or equal to 40%
class 0

Record Cn1cc(C(=O)c2nc(-c3c[nH]c4ccc(Br)cc34)no2)c2cc(Br)ccc21 ; criterion: growth no lower than 40%. Met?
class 1

---

Tested on: DU-145 prostate
Experiment: NCI-60 one-dose screen, 48 h (100 = growth as untreated, 0 = no growth, -100 = all killed)
Settings: 10 µM unless noted
The panel holds about 83,000 compounds, 20% with a hit somewhere; the sample as a whole holds those more often.
Attribute Measured: growth (%)
Quick note: give the figure in %, leave out the unit.

# value of growth, DU-145 prostate, item C=C1C(=O)O[C@H]2[C@H]1CC/C(COC(=O)/C=C\C(=O)NCc1ccc(Cn3c(=O)sn(-c4ccccc4)c3=O)cc1)=C\CC[C@@]1(C)O[C@@H]21 = 55.7

// assay DU-145 prostate, entry Cn1cc(-c2nonc2-c2c[nH]c3ccc(F)cc23)c2cc(Br)ccc21 , growth value = 50.2

Record C[C@H]1[C@H](C)CC[C@]2(C(=O)O)CC[C@]3(C)C(=CC[C@@H]4[C@@]5(C)C[C@@H](Cc6cn([C@@H]7O[C@H](CO)[C@@H](O)[C@H](O)[C@H]7O)nn6)[C@H](O)C(C)(C)[C@@H]5CC[C@]43C)[C@H]12 / DU-145 prostate, growth recorded as 105

---

System: SNB-19 CNS
Assay: NCI-60 one-dose screen, 48 h
Settings: 10 µM unless noted
Compounds without any hit were thinned out: in the full panel of roughly 83,000, 20% have a hit. Activity calls are given as the source filed them. Rule for the calls: active = growth percent below 10; inactive = the rest.
Outcome (select one): active, inactive

Hello, I am checking results. What call was entered for C#CC#CC#CC#CC#CC#CC#CC#CC[C@H]1OC[C@H](COC(=O)O[C@@H](C(=O)O[C@H]2C[C@@]3(O)[C@@H](OC(=O)c4ccccc4)[C@@H]4[C@]5(OC(C)=O)CO[C@@H]5C[C@H](O)[C@@]4(C)C(=O)[C@H](OC(C)=O)C(=C2C)C3(C)C)[C@@H](NC(=O)c2ccccc2)c2ccccc2)O1 ?
inactive

# fetch the recorded call for Cc1ccc(S(=O)(=O)n2cc(C3C(Cl)C(=O)N3c3ccc(N4CCOCC4=O)cc3)c3ccccc32)cc1 (centres undefined) here
inactive

Which outcome did this test record for the compound C=NNc1ccccc1 ?
inactive

Called result for COc1cc2ncnc(Nc3ccc(F)c(Cl)c3)c2cc1OCC(=O)N1CCN(c2ccc(F)cc2)CC1
inactive

Which outcome was assigned to N=c1c2c(=N)n3c(nc2nc2n1-c1ccccc1Sc1ccccc1-2)sc1cc(Cl)ccc13 in this test?
inactive

Entry O=C(Cn1nnc2ccccc21)Nc1ccc(-c2nc3ccccc3s2)cc1 : call = ?
inactive

Could you please tell me the result logged for CC12CCC(/C(=C/NNc3ccc([N+](=O)[O-])cc3[N+](=O)[O-])C1=O)C2(C)C (centres undefined) in this assay?
inactive

Recorded test call requested for O=c1[nH]c(-c2ccc(Cl)cc2)cn1-c1ccc(-n2cc(-c3ccc(Cl)cc3)[nH]c2=O)cc1
inactive

// param item: CCOC(=O)c1ccc2c(c1)c1c(C)c3ccncc3c(C)c1n2C ; yields the recorded call
active

Write down the call the test reported for this compound. Item: COc1ccc(C(c2cc(OC)c(OC)c(OC)c2)N2CCCC2)cc1 (centres undefined)
inactive

Entry O=C1Nc2ccc(F)cc2/C1=N/c1nnc(Sc2ccccc2)s1 : call = ?
inactive

Answer briefly: the call reported for O=C(NCc1ccc2c(c1)OCO2)NCC1CCCC(CNC(=O)NCc2ccc3c(c2)OCO3)C1 (centres undefined) in this assay.
inactive

# fetch the recorded call for O=C(CCCCl)NNc1nccc(Nc2ccc(S(=O)(=O)Nc3ccncc3)cc2)n1 here
inactive

What classification did C#Cc1cccc(Oc2ccc(NC(=O)CCl)cc2)c1 end up with in this test?
inactive
